Origin of values: patent US9974776B2

- Test system: REN cells
- assay-explanation: Proliferation assay (Trypan blue viable cell count; wash-off and add-on experiments) in REN cells
- Format: cell-based, human
- stated-conditions: concentrations used in Example 2(a), said in b159 to be the respective IC50 concentrations; read-out: IC50 concentration in REN cells
- Description: Cells were seeded at a density of 10×10^4 cells/well in 6-well plates in RPMI medium supplemented with 10% FBS, 100 μg/ml streptomycin and 10 μg/ml penicillin and incubated over-night at 37° C. in a humidified environment containing 5% CO2 to allow adherence. Following treatment cells were trypsinized and stained with Trypan blue. The number of cells considered viable (unstained cells) was counted in a Bürker haemocytometer within 5 minutes after staining. […]
assay-metric: IC50 (µM)
All answers are understood in µM, so give the number only.

The reported value for N.N.[Cl][Pt][Cl] [cisplatin, reference compound] in terms of IC50 is 100

* * *

- Tested on: REN cells
- assay-explanation: Proliferation assay (Trypan blue viable cell count; wash-off and add-on experiments) in REN cells
- Assay type: cell-based, human
- stated-conditions: Homo sapiens; concentrations used in Example 2(a), said in b159 to be the respective IC50 concentrations; read-out: IC50 concentration in REN cells
assay-metric: IC50
Show the value, then the unit it is measured in.

The recorded IC50 for Nc1nc2[nH]cc(CCc3ccc(C(=O)N[C@@H](CCC(=O)O)C(=O)O)cc3)c2c(=O)[nH]1 [pemetrexed, reference compound] is 22 µM
